# method: Cytotoxicity in Hek293T (CellTiterGlo)
# Assay type: cell-based
# experimental_parameters: human, Hek293T cells, 24 h after compound addition, 5 nM-100 microM, read-out: Hek293T IC50 (cytotoxic activity)
measure_name: IC50 at 24 h

Give me IC50 at 24 h for each of these compounds, listed below.
1. CCOC(=O)C1=C(N)Oc2cc3c(cc2C1c1cc(F)c(F)c(F)c1)OCO3 (centres unmarked)
2. COc1cc(C2C(C#N)=C(N)Oc3c2ccc2ccc(N)nc32)cc(Br)c1OC (racemic)
3. COc1cc(C2C(C#N)=C(N)Oc3c2ccc2ccccc32)cc(Br)c1OC (centres unmarked)
4. N#CC1=C(N)Oc2c(ccc3ccccc23)C1c1cc(F)c(F)c(F)c1 (centres unmarked)
5. C=CCOc1c(Br)cc(C2C(C(=O)OCC)=C(N)Oc3c2ccc2ccccc32)cc1OC (centres unmarked)

1. > 90 µM
2. > 90 µM
3. > 90 µM
4. > 90 µM
5. > 90 µM

Provide IC50 at 24 h values for the following items, in order.
1. CCOC(=O)C1=C(N)Oc2c(ccc3ccccc23)C1c1cc(Br)c(OC)c(OC)c1 (centres unmarked)
2. COc1cc(C2C(C#N)=C(N(C)C)Oc3cc4ccccc4cc32)cc(Br)c1OC (centres unmarked)
3. COc1cc(C2C(C#N)=C(N)Oc3c2ccc2ccc(O)nc32)cc(Br)c1OC (centres unmarked)

1: > 90 µM; 2: > 90 µM; 3: > 90 µM

Give IC50 at 24 h for each of the items listed below.
1. N#CC1=C(N)Oc2cc3c(cc2C1c1cc(F)c(F)c(F)c1)OCO3 (centres unmarked)
2. N#CC1=C(N)Oc2cc3ccccc3cc2C1c1cc(F)c(F)c(F)c1 (centres unmarked)
3. C=CCOc1c(Br)cc(C2C(C(=O)OCC)=C(N)Oc3cc4c(cc32)OCO4)cc1OC (centres unmarked)
4. COc1cc(C2C(C#N)=C(N)Oc3cc4ccccc4cc32)cc(Br)c1OC (centres unmarked)
5. COc1cc(C2C(C#N)=C(N)Oc3c2ccc2ccc(C)nc32)cc(Br)c1OC (centres unmarked)

1. > 90 µM
2. > 90 µM
3. > 90 µM
4. > 90 µM
5. > 90 µM

###

# Test system: HCT116 colon carcinoma cells
# method: Antiproliferative activity against HCT116 colon carcinoma cells (nuclei count)
# Type: cell-based, human
# experimental_parameters: Homo sapiens, HCT-116; colon carcinoma cells, 5 nM-90 microM, nuclei count; read-out: HCT116 IC50
So I've got a bunch of molecules here, and I need their pIC50 values.
Numbers only, as −log10 of the molar value.

Below are worked cases with known answers.
INSERT INTO assay_data (molecule, val) VALUES
  ('N#CC1=C(N)Oc2cc3c(cc2C1c1cc(F)c(F)c(F)c1)OCO3 (centres unmarked)', 6.18),
  ('COc1cc(C2C(C#N)=C(N(C)C)Oc3cc4ccccc4cc32)cc(Br)c1OC (centres unmarked)', 5.00),
  ('COc1cc(C2C(C#N)=C(N)Oc3c2ccc2ncccc32)cc(Br)c1OC (centres unmarked)', 6.48);

Below are some molecules; for each one, tell me its pIC50.
1. CCOC(=O)C1=C(N)Oc2c(ccc3ccccc23)C1c1cc(Br)c(OC)c(OC)c1 (centres unmarked)
2. C=CCOc1c(Br)cc(C2C(C(=O)OCC)=C(N)Oc3cc4c(cc32)OCO4)cc1OC (centres unmarked)

1. 5.07
2. 6.60

Dear colleague, could you please provide pIC50 for the molecules listed below?
1. COc1cc(C2C(C#N)=C(N)Oc3c2ccc2ccc(N)nc32)cc(Br)c1OC (racemic)
2. N#CC1=C(N)Oc2c(ccc3ccccc23)C1c1cc(F)c(F)c(F)c1 (centres unmarked)
3. C=CCOc1c(Br)cc(C2C(C(=O)OCC)=C(N)Oc3c2ccc2ccccc32)cc1OC (centres unmarked)
4. COc1cc(C2C(C#N)=C(N)Oc3c2ccc2ccccc32)cc(Br)c1OC (centres unmarked)
5. C=CCOc1c(Br)cc(C2C(C#N)=C(N)Oc3cc4c(cc32)OCO4)cc1OC (centres unmarked)
6. COc1cc(C2C(C#N)=C(N)Oc3c2ccc2ccc(O)nc32)cc(Br)c1OC (centres unmarked)
7. COc1cc(C2C(C#N)=C(N)Oc3c2c(O)nc2ccccc32)cc(Br)c1OC (centres unmarked)

1: 7.82; 2: 6.04; 3: 6.84; 4: 7.31; 5: 6.26; 6: 7.77; 7: 6.52

Dear colleague, could you send me pIC50 for each of the items below? Thanks.
1. N#CC1=C(N)Oc2cc3ccccc3cc2C1c1cc(F)c(F)c(F)c1 (centres unmarked)
2. COc1cc(C2C(C#N)=C(N)Oc3cc4ccccc4cc32)cc(Br)c1OC (centres unmarked)

1: 4.52; 2: 5.54

Value lookup for pIC50; key = COc1cc(C2C(C#N)=C(N)Oc3c2ccc2ccc(C)nc32)cc(Br)c1OC (centres unmarked) 5.48

Data provenance is patent US20130296344A1.
